Numbers sourced from patent US20200399712A1.

Tested on: HPV-16
assay-remarks: qPCR sensitivity against HPV-HNSCC tumor samples diluted among 10 ng normal human DNA
condition: Sample # 30
So I've got a bunch of molecules here, and I need their Threshold of tumor cell numbers for HPV-16 detection values.
Output should be the measured figure followed by the unit it is expressed in.

Exercise: Item under review: HR E5L2-4: primer/probe set for junction between E5 and L2, SEQ ID NO: 55-57 (same as SEQ ID NO: 4-6) (nucleic acid, chemistry not given here) DNA 1: GCAAAACGCACAAAACGTGC DNA 2: GACATGTACCTGCCTGTTTGC DNA 3: CGGCTACCCAACTTTATAAAACA . Reported Threshold of tumor cell numbers for HPV-16 detection?
Solution: 30.0 tumor cells

Exercise: Item under review: BR E1-6: HPV-16 E1 region primer/probe set, SEQ ID NO: 43-45 (nucleic acid, chemistry not given here) DNA 1: ATGCACAATTGGCAGACACTAA DNA 2: AATCCTTTACAATTTTTGCCTGTGA DNA 3: AGTAATGCAAGTGCCTTTCTAAAAAGTA . Reported Threshold of tumor cell numbers for HPV-16 detection?
Solution: 150.0 tumor cells

Exercise: Item under review: E6: previously designed (historical) HPV-16 E6 primers and Taqman probe, SEQ ID NO: 7-9, positive control (nucleic acid, Taqman probe, labels not given here) DNA 1: TCAGGACCCACAGGAGCG DNA 2: CCTCACGTCGCAGTAACTGTTG DNA 3: CCCAGAAAGTTACCACAGTTATGCACAGAGCT . Reported Threshold of tumor cell numbers for HPV-16 detection?
Solution: 15.0 tumor cells

Exercise: Item under review: E7: previously designed (historical) HPV-16 E7 primers and Taqman probe, SEQ ID NO: 10-12; part of CLIA test (nucleic acid, Taqman probe, labels not given here, part of CLIA test) DNA 1: CCGGACAGAGCCCATTACAA DNA 2: CGAATGTCTACGTGTGTGCTTTG DNA 3: CGCACAACCGAAGCGTAGAGTCACACT . Reported Threshold of tumor cell numbers for HPV-16 detection?
Solution: 15.0 tumor cells

Exercise: Item under review: BR E1-4: HPV-16 E1 region primer/probe set, SEQ ID NO: 37-39 (nucleic acid, chemistry not given here) DNA 1: ATGCACAATTGGCAGACACTA DNA 2: ACAATCCTTTACAATTTTTGCCTGT DNA 3: TAATGCAAGTGCCTTTCTAAAAAGT . Reported Threshold of tumor cell numbers for HPV-16 detection?
Solution: 30.0 tumor cells

Exercise: Item under review: BR E6-1: HPV-16 E6 region (172-373 bp) primer/probe set, SEQ ID NO: 58-60 (nucleic acid, chemistry not given here) DNA 1: CAGTTACTGCGACGTGAGGT DNA 2: ACAGCATATGGATTCCCATCTC DNA 3: ACTTTGCTTTTCGGGATTTATGCATAGTA . Reported Threshold of tumor cell numbers for HPV-16 detection?
Solution: 150.0 tumor cells

Exercise: Item under review: BR E1-5: HPV-16 E1 region primer/probe set, SEQ ID NO: 40-42 (same as SEQ ID NO: 1-3) (nucleic acid, chemistry not given here) DNA 1: GCACAATTGGCAGACACTAAT DNA 2: GCACAATCCTTTACAATTTTTGCC DNA 3: AGTAATGCAAGTGCCTTTCTAAAAAGTAATTC . Reported Threshold of tumor cell numbers for HPV-16 detection?
Solution: 15.0 tumor cells
